# key: entry, value: folding stability dG
B1: r16_88_TrROS_Hall (parent)
chain: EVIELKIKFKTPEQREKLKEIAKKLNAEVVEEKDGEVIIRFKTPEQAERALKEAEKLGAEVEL

- Variants of: B1
- test_protocol: folding stability dG (cDNA display proteolysis); higher = more stable
- experimental_parameters: PBS, room temperature
readout_label: folding stability dG (kJ/mol)

variant_code	readout_label	data_value
T11D	folding stability dG	16.9
K23N	folding stability dG	18.2
D34L	folding stability dG	18
G58Q	folding stability dG	17.8
L25H	folding stability dG	19.3
I3H	folding stability dG	19.7
K19H	folding stability dG	17.9
K19R	folding stability dG	18
I38P	folding stability dG	4.97
